Provide the reported pKi of each item.
systemUnderTest: human FLAP (Homo sapiens (Human), UniProt P20292)
Sequence (P20292 whole entry): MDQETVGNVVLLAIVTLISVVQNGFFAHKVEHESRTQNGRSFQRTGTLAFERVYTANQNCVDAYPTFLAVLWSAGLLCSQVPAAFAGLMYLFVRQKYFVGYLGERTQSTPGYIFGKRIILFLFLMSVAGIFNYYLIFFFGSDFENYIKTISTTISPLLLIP
testName: FLAP binding assay (HTRF format)
conditionDescription: human FLAP-containing Sf-9 membranes, 25 nM HTRF ligand, 2 h; average of runs; read-out: FLAP Binding wild type HTRF Ki
Structures can show the parent of a compound that is named as a salt.
Hey, just a heads up that pKi is the negative log base 10 of the concentration in molar.

Would you kindly share the measured pKi for Cn1ccc(COc2ccc3nc([C@H]4CCCC[C@H]4C(=O)O)n(Cc4ccc(OC(F)(F)F)cc4F)c3c2)n1 (stereo in doubt) [Example 53] ? 8.52

Same read-out for CCC(CC)(Cc1nc2ccc(OCc3ccc(C)cn3)cc2n1Cc1ccc(OC(F)(F)F)cc1F)C(=O)O [Example 23] ? 7.74

Cool, now COc1cc(OC(F)(F)F)ccc1Cn1c([C@H]2CCCC[C@H]2C(=O)O)nc2ccc(OCc3ccn(C)n3)cc21 (racemic) [Example 84] 8.23

Now the same for Cn1ccc(COc2cc(F)c3nc([C@@H]4CCCC[C@@H]4C(=O)O)n(Cc4ccc(OC(F)(F)F)cc4)c3c2)n1 (racemic) [Example 95, HCl salt] 8.44

* * *

systemUnderTest: human FLAP (Homo sapiens (Human))
testName: FLAP binding assay (HTRF format)
conditionDescription: human FLAP-containing Sf-9 membranes, 25 nM HTRF ligand, 2 h; average of runs; read-out: FLAP Binding wild type HTRF Ki
Structures can show the parent of a compound that is named as a salt.
measuredAttribute: pKi
The scale used: pKi is minus the common logarithm of the concentration in molar units.

For human FLAP (Homo sapiens (Human)), provide pKi of Cn1ccc(COc2ccc3nc([C@@H]4CCCC[C@@H]4C(=O)O)n(Cc4cccc(-c5ccc(C(F)(F)F)cc5)c4)c3c2)n1 (racemic) [Example 150] please. 8.85

Moving on to the next compound: Cc1ccc(COc2cc(Cl)c3nc(CC(C)(C)C(=O)O)n(Cc4ccc(Br)cc4)c3c2)nc1 [Example 79] 7.07

Now the same for Cc1ccc(COc2ccc3nc([C@@H]4CCCC[C@@H]4C(=O)O)n(Cc4ccc(OC(F)(F)F)cc4Cl)c3c2)nc1 (racemic) [Example 101, HCl salt] 7.68

Moving on to the next compound: CCC(CC)(Cc1nc2ccc(OCc3ncc(C)cc3F)cc2n1Cc1ccc(N2CCC(C)CC2)cc1F)C(=O)O [Example 181] 8.28

Then this compound: Cn1cc(Cl)c(COc2ccc3nc([C@@H]4CCCC[C@@H]4C(=O)O)n(Cc4ccc(N5CCCCC5)cc4)c3c2)n1 (racemic) [Example 82] 8.10

Again, but for Cc1ccc(COc2ccc3nc([C@H]4CCCC[C@H]4C(=O)O)n(Cc4ccc(-c5ncc(Cl)cn5)cc4)c3c2)nc1 (racemic) [Example 80] 8.48

Next entry: CCC(CC)(Cc1nc2ccc(OCc3ccn(C)n3)cc2n1Cc1ccc(N2CCC(C(F)(F)F)CC2)cc1)C(=O)O [Example 190] 6.68

Next: Cc1ccc(COc2ccc3nc([C@H]4CCCC[C@H]4C(=O)O)n(Cc4c(F)cc(-c5ccc(C(F)(F)F)cc5)cc4F)c3c2)nc1 (racemic) [Example 138] 8.60

Entry Cc1cnc(COc2ccc3nc(CC(C)(C)C(=O)O)n(Cc4ccc(Br)cc4)c3c2)c(F)c1 [Example 128] please 8.07

// same read-out, input: CCC(CC)(Cc1nc2c(F)cc(OCc3ccc(C)cn3)cc2n1Cc1ccc(C)cc1)C(=O)O [Example 71, TFA salt] 7.31

How about Cn1ccc(COc2ccc3nc([C@@H]4CCCC[C@@H]4C(=O)O)n(Cc4ccc(OC(F)(F)F)cc4F)c3c2)n1 (stereo in doubt) [Example 51] ? 8.10

Try Cc1cnc(COc2ccc3nc([C@H]4CCCC[C@H]4C(=O)O)n(Cc4c(F)cc(-c5ccc(C(F)(F)F)cc5)cc4F)c3c2)c(F)c1 (racemic) [Example 137] next. 9.18

Cool, now Cn1ccc(COc2cc(F)c3nc(C4CCCC[C@@H]4C(=O)O)n(Cc4ccc(N5CC(F)(F)C5)cc4)c3c2)n1 (mixture of isomers) [Example 168, formate salt] 8.11

Proceed to Cc1cnc(COc2ccc3nc([C@@H]4[C@H](C(=O)O)C4(C)C)n(Cc4ccc(Br)cc4)c3c2)c(F)c1 (racemic) [Example 132] 8.54

Also Cc1cc(OC(F)(F)F)ccc1Cn1c([C@@H]2CCCC[C@@H]2C(=O)O)nc2ccc(OCc3ccn(C)n3)cc21 (racemic) [Example 99] , if possible. 7.74

Subsequent entry: Cn1ccc(COc2cc(F)c3nc([C@@H]4CCCC[C@@H]4C(=O)O)n(Cc4ccc(N5CCCCC5)cc4)c3c2)n1 (racemic) [Example 169, HCl salt] 7.92

Could you do the same for CCC(CC)(Cc1nc2ccc(OCc3ncc(C)cc3F)cc2n1Cc1ccc(Br)cc1)C(=O)O [Example 136] , please? 9.19

Try this compound too: CCC(CC)(Cc1nc2ccc(OCc3ccc(C)cn3)cc2n1Cc1ccc(Br)cc1)C(=O)O [Example 8, TFA salt] 8.00

Moving on to CCC(CC)(Cc1nc2c(F)cc(OCc3ccc(C)cn3)cc2n1Cc1ccc(Br)cc1)C(=O)O [Example 65, TFA salt] 8.22

Please give the result for Cn1cc(Cl)c(COc2ccc3nc([C@@H]4CCCC[C@@H]4C(=O)O)n(Cc4ccc(-c5ccc(C(F)(F)F)cc5)cc4)c3c2)n1 (racemic) [Example 151] too. 7.89

What do you get for Cc1cnc(COc2ccc3nc(CC(C)(C)C(=O)O)n(Cc4ccc(OC(F)(F)F)cc4F)c3c2)c(F)c1 [Example 131] ? 7.62

// repeat for Cc1ccc(COc2cc3c(cc2Cl)nc([C@H]2CCCC[C@H]2C(=O)O)n3Cc2ccc(OC(F)(F)F)cc2F)nc1 (racemic) [Example 110, HCl salt] and report 6.04

Then what about the compound CCC(CC)(Cc1nc2ccc(OCc3ccn(C)n3)cc2n1Cc1ccc(-c2ccc(C(F)(F)F)cc2)cc1F)C(=O)O [Example 188] ? 7.92

Data credit: patent US8952177B2
